Readings of DC50 for the listed compounds
SUBJECT OF TEST: androgen receptor (AR) splicing variant AR-v7 (Homo sapiens, UniProt P10275)
Construct: The degradation activity of compounds on AR-v7 in 22RV1 cells; host or cells: 22RV1 cells
Sequence (P10275 1-644 isoform P10275-3): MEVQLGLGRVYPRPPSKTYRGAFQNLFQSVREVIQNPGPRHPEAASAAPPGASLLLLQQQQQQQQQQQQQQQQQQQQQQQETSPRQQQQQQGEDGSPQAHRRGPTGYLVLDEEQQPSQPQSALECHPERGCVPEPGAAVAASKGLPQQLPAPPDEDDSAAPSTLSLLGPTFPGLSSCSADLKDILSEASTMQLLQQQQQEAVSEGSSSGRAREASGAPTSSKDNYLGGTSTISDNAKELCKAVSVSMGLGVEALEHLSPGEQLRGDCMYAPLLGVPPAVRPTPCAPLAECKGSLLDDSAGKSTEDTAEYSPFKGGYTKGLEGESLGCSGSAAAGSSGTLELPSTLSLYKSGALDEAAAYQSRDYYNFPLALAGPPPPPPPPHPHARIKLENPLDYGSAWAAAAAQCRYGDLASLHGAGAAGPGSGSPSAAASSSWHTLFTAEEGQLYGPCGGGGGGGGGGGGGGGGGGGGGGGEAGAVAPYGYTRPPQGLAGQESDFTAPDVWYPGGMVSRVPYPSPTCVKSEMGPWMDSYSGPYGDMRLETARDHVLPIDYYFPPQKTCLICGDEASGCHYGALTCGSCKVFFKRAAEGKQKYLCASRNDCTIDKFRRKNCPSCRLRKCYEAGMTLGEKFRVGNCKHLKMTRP
PROTOCOL DETAILS: Degradation activity on androgen receptor splicing variant AR-v7 in 22RV1 cells (ELISA)
Assay type: cell-based
ASSAY CONTEXT: AR-v7 degradation in 22RV1 cells, 48 h, class symbols
EXPERIMENTAL ENDPOINT: DC50

1. CC(C)(c1ccc(Oc2cc(-n3ccnn3)ccn2)cc1)c1ccc(O[C@H]2C[C@H](Nc3ccc4c(c3)C(=O)N(C3CCC(=O)NC3=O)C4=O)C2)cc1 (stereo partly drawn) [Example 169]    < 10 nM
2. CC(C)(c1ccc(OCc2ccnc(N3CC4(CCNCC4)C3)n2)cc1)c1ccc(O[C@H]2C[C@@H](Nc3ccc4c(c3)C(=O)N(C3CCC(=O)NC3=O)C4=O)C2)cc1 (stereo partly drawn) [Example 85]    11 to 100 nM
3. C=CC(c1ccc(Oc2cnc(-c3nnc(C)o3)nc2)cc1)c1ccc(O[C@H]2C[C@H](Nc3ccc4c(c3)C(=O)N(C3CCC(=O)NC3=O)C4=O)C2)cc1 (stereo partly drawn) [Example 373]    < 10 nM

---

SUBJECT OF TEST: androgen receptor (AR) splicing variant AR-v7 (Homo sapiens)
Construct: The degradation activity of compounds on AR-v7 in 22RV1 cells; host or cells: 22RV1 cells
PROTOCOL DETAILS: Degradation activity on androgen receptor splicing variant AR-v7 in 22RV1 cells (ELISA)
Type: cell-based
ASSAY CONTEXT: AR-v7 degradation in 22RV1 cells, 48 h, class symbols
Readings of DC50 for the listed compounds
EXPERIMENTAL ENDPOINT: DC50

1. CC(C)(c1ccc(Oc2cc(-n3nccn3)ncn2)cc1)c1ccc(O[C@H]2C[C@@H](Nc3ccc4c(c3)C(=O)N(C3CCC(=O)NC3=O)C4=O)C2)cc1 (stereo partly shown) [Example 577]    11 to 100 nM
2. CC(C)(c1ccc(OCc2ccnc(-c3ncno3)n2)cc1)c1ccc(O[C@H]2C[C@@H](Nc3ccc4c(c3)C(=O)N(C3CCC(=O)NC3=O)C4=O)C2)cc1 (stereo partly shown) [Example 252]    1000 to 5000 nM
3. Cc1nc(-c2ccc(Oc3ccc(C(C)(C)c4ccc(O[C@H]5C[C@H](Nc6ccc7c(c6)C(=O)N(C6CCC(=O)NC6=O)C7=O)C5)cc4)cc3)cn2)no1 (stereo partly shown) [Example 581]    < 10 nM
4. CC(=O)c1nccc(COc2ccc(C(C)(C)c3ccc(OC4CC5(CCN(c6ccc7c(c6)C(=O)N(C6CCC(=O)NC6=O)C7=O)C5)C4)cc3)cc2)n1 (stereo not shown) [Example 562]    1000 to 5000 nM
5. Cc1nc(-c2cc(Oc3ccc(C(C)(C)c4ccc(O[C@H]5C[C@@H](Nc6ccc7c(c6)C(=O)N(C6CCC(=O)NC6=O)C7=O)C5)cc4)cc3)ccn2)no1 (stereo partly shown) [Example 174]    11 to 100 nM
6. CC(C)(c1ccc(Oc2ccnc(-n3nccn3)c2)cc1)c1ccc(O[C@H]2C[C@H](Nc3ccc4c(c3)C(=O)N(C3CCC(=O)NC3=O)C4=O)C2)cc1 (stereo partly shown) [Example 164]    11 to 100 nM
7. CC(C)(c1ccc(OCc2ccnc(N3CC4(COC4)C3)n2)cc1)c1ccc(OC[C@@H]2CCN2Cc2ccc3c(c2)C(=O)N(C2CCC(=O)NC2=O)C3=O)cc1 (stereo partly shown) [Example 566]    1000 to 5000 nM
8. CCOC(=O)c1ncc(Oc2ccc(C(C)(C)c3ccc(O[C@H]4C[C@H](Nc5ccc6c(c5)C(=O)N(C5CCC(=O)NC5=O)C6=O)C4)cc3)cc2)cn1 (stereo partly shown) [Example 381]    11 to 100 nM
9. CC(C)(c1ccc(OCc2ccnc(NS(C)(=O)=O)n2)cc1)c1ccc(OC2CCN(CC3CCN(CC4CCN(CC5CN(c6ccc7c(c6)C(=O)N(C6CCC(=O)NC6=O)C7=O)C5)CC4)CC3)CC2)cc1 (stereo not shown) [Example 12]    1000 to 5000 nM
10. CC(C)(c1ccc(Oc2cc(N3CC4(COC4)C3)ncn2)cc1)c1ccc(O[C@H]2C[C@@H](Nc3ccc4c(c3)C(=O)N(C3CCC(=O)NC3=O)C4=O)C2)cc1 (stereo partly shown) [Example 571]    < 10 nM

---

Readings of DC50 for the listed compounds
SUBJECT OF TEST: androgen receptor (AR) splicing variant AR-v7 (Homo sapiens, UniProt P10275)
Construct: The degradation activity of compounds on AR-v7 in 22RV1 cells; host or cells: 22RV1 cells
PROTOCOL DETAILS: Degradation activity on androgen receptor splicing variant AR-v7 in 22RV1 cells (ELISA)
Type: cell-based
ASSAY CONTEXT: AR-v7 degradation in 22RV1 cells, 48 h, class symbols
EXPERIMENTAL ENDPOINT: DC50

1. CC(C)(c1ccc(OCc2cccc(C(O)C3CC3)n2)cc1)c1ccc(O[C@H]2C[C@H](Nc3ccc4c(c3)C(=O)N(C3CCC(=O)NC3=O)C4=O)C2)cc1 (some centres unmarked)    < 10 nM
2. CC(C)(c1ccc(OCc2ccnc(N3CC4(COC4)C3)n2)cc1)c1ccc(O[C@H]2C[C@@H](Nc3ccc4c(c3)C(=O)N(C3CCC(=O)NC3=O)C4=O)C2)cc1 (some centres unmarked)    < 10 nM
3. CC(C)(c1ccc(OCCCNc2cccc3c2C(=O)N(C2CCC(=O)NC2=O)C3=O)cc1)c1ccc(OCc2ccnc(N3CCC3)n2)cc1 (centres unmarked)    101 to 1000 nM
4. O=C1CCC(N2C(=O)c3ccc(N[C@H]4C[C@@H](Oc5ccc(S(=O)(=O)c6ccc(OCc7ccnc(N8CC9(COC9)C8)n7)cc6)cc5)C4)cc3C2=O)C(=O)N1 (some centres unmarked)    < 10 nM
5. CC(C)(c1ccc(OCc2cccc(C(=O)C3CC3)n2)cc1)c1ccc(O[C@H]2C[C@H](Nc3ccc4c(c3)C(=O)N(C3CCC(=O)NC3=O)C4=O)C2)cc1 (some centres unmarked)    11 to 100 nM

---

Readings of DC50 for the listed compounds
SUBJECT OF TEST: androgen receptor (AR) splicing variant AR-v7 (Homo sapiens)
Construct: The degradation activity of compounds on AR-v7 in 22RV1 cells; host or cells: 22RV1 cells
PROTOCOL DETAILS: Degradation activity on androgen receptor splicing variant AR-v7 in 22RV1 cells (ELISA)
Format: cell-based
ASSAY CONTEXT: AR-v7 degradation in 22RV1 cells, 48 h, numeric values
EXPERIMENTAL ENDPOINT: DC50

1) CC(C)(c1ccc(OCCCOCCCN2CCC3(CC2)CN(c2ccc4c(c2)C(=O)N(C2CCC(=O)NC2=O)C4=O)C3)cc1)c1ccc(OCc2ccnc(NS(C)(=O)=O)n2)cc1 (stereo not drawn) [Example 4]    > 10 µM
2) CC(C)(c1ccc(OCCCCCCCCOCCCCNc2ccc3c(c2)C(=O)N(C2CCC(=O)NC2=O)C3=O)cc1)c1ccc(N2CCc3cnc(N4CC5(COC5)C4)nc3C2)cc1 (stereo not drawn) [Example 65]    > 10 µM
3) CC(C)(c1ccc(OCc2ccnc(NS(C)(=O)=O)n2)cc1)c1ccc(OC2CCN(c3ccc4c(c3)C(=O)N(C3CCC(=O)NC3=O)C4=O)CC2)cc1 (stereo not drawn) [Example 34]    > 10 µM

---

SUBJECT OF TEST: androgen receptor (AR) splicing variant AR-v7 (Homo sapiens, UniProt P10275)
Construct: The degradation activity of compounds on AR-v7 in 22RV1 cells; host or cells: 22RV1 cells
PROTOCOL DETAILS: Degradation activity on androgen receptor splicing variant AR-v7 in 22RV1 cells (ELISA)
Type: cell-based
ASSAY CONTEXT: AR-v7 degradation in 22RV1 cells, 48 h, class symbols
EXPERIMENTAL ENDPOINT: DC50

1. Cc1nc(-c2ccnc(Oc3ccc(C(C)(C)c4ccc(O[C@H]5C[C@H](Nc6ccc7c(c6)C(=O)N(C6CCC(=O)NC6=O)C7=O)C5)cc4)cc3)n2)no1 (stereo partly drawn)    < 10 nM
2. Cc1nc(-c2cncc(Oc3ccc(C(C)(C)c4ccc(O[C@H]5C[C@H](Nc6ccc7c(c6)C(=O)N(C6CCC(=O)NC6=O)C7=O)C5)cc4)cc3)n2)no1 (stereo partly drawn)    11 to 100 nM
3. CC(C)(c1ccc(OCc2cccc(N3CC4(COC4)C3)n2)cc1)c1ccc(O[C@H]2C[C@H](Nc3ccc4c(c3)C(=O)N(C3CCC(=O)NC3=O)C4=O)C2)cc1 (stereo partly drawn)    < 10 nM

---

SUBJECT OF TEST: androgen receptor (AR) splicing variant AR-v7 (Homo sapiens)
Construct: The degradation activity of compounds on AR-v7 in 22RV1 cells; host or cells: 22RV1 cells
PROTOCOL DETAILS: Degradation activity on androgen receptor splicing variant AR-v7 in 22RV1 cells (ELISA)
Assay type: cell-based
ASSAY CONTEXT: AR-v7 degradation in 22RV1 cells, 48 h, class symbols
Readings of DC50 for the listed compounds
EXPERIMENTAL ENDPOINT: DC50

1) Cc1nnc(-c2cc(Oc3ccc(C(C)(C)c4ccc(O[C@H]5C[C@H](Nc6ccc7c(c6)C(=O)N(C6CCC(=O)NC6=O)C7=O)C5)cc4)cc3)ncn2)o1 (stereo partly drawn)    11 to 100 nM
2) CC(C)(c1ccc(Oc2cnc(-n3nccn3)cn2)cc1)c1ccc(O[C@H]2C[C@H](Nc3ccc4c(c3)C(=O)N(C3CCC(=O)NC3=O)C4=O)C2)cc1 (stereo partly drawn)    11 to 100 nM
3) O=C1CCC(N2C(=O)c3ccc(N[C@H]4C[C@@H](Oc5ccc(C6(c7ccc(OCc8ccnc(N9CC%10(COC%10)C9)n8)cc7)CCCC6)cc5)C4)cc3C2=O)C(=O)N1 (stereo partly drawn)    < 10 nM
4) CC(C)(c1ccc(OCCCCNc2cccc3c2C(=O)N(C2CCC(=O)NC2=O)C3=O)cc1)c1ccc(OCc2ccnc(NS(C)(=O)=O)n2)cc1 (stereo not drawn)    1000 to 5000 nM
5) Cc1nc(-c2ncc(Oc3ccc(C(C)c4ccc(O[C@H]5C[C@H](Nc6ccc7c(c6)C(=O)N(C6CCC(=O)NC6=O)C7=O)C5)cc4)cc3)cn2)no1 (stereo partly drawn) [Example 480]    < 10 nM
6) CCC(CC)(c1ccc(Oc2ccc(-c3noc(C)n3)nn2)cc1)c1ccc(O[C@H]2C[C@@H](Nc3ccc4c(c3)C(=O)N(C3CCC(=O)NC3=O)C4=O)C2)cc1 (stereo partly drawn)    < 10 nM
7) CC(C)(c1ccc(OCc2ccnc(-c3cc[nH]n3)n2)cc1)c1ccc(O[C@H]2C[C@@H](Nc3ccc4c(c3)C(=O)N(C3CCC(=O)NC3=O)C4=O)C2)cc1 (stereo partly drawn)    11 to 100 nM
8) CN(C)C1CCCN(c2nccc(COc3ccc(C(C)(C)c4ccc(O[C@H]5C[C@@H](Nc6ccc7c(c6)C(=O)N(C6CCC(=O)NC6=O)C7=O)C5)cc4)cc3)n2)C1 (stereo partly drawn)    11 to 100 nM
9) CC(C)(c1ccc(OCc2nc(N3CC4(COC4)C3)ncc2Cl)cc1)c1ccc(O[C@H]2C[C@@H](Nc3ccc4c(c3)C(=O)N(C3CCC(=O)NC3=O)C4=O)C2)cc1 (stereo partly drawn)    11 to 100 nM
10) CC(C)(c1ccc(OCc2ccnc(-n3nccn3)n2)cc1)c1ccc(O[C@H]2C[C@@H](Nc3ccc4c(c3)C(=O)N(C3CCC(=O)NC3=O)C4=O)C2)cc1 (stereo partly drawn)    11 to 100 nM
11) C=CC(c1ccc(Oc2ncc(-n3nccn3)cn2)cc1)c1ccc(O[C@H]2C[C@H](Nc3ccc4c(c3)C(=O)N(C3CCC(=O)NC3=O)C4=O)C2)cc1 (stereo partly drawn)    11 to 100 nM
12) CC(C)(c1ccc(Oc2nc(-n3nccn3)ccc2F)cc1)c1ccc(O[C@H]2C[C@H](Nc3ccc4c(c3)C(=O)N(C3CCC(=O)NC3=O)C4=O)C2)cc1 (stereo partly drawn)    11 to 100 nM
13) CN1CCC(Nc2nccc(COc3ccc(C(C)(C)c4ccc(O[C@H]5C[C@H](Nc6ccc7c(c6)C(=O)N(C6CCC(=O)NC6=O)C7=O)C5)cc4)cc3)n2)CC1 (stereo partly drawn)    < 10 nM
14) CN1CC(Oc2nccc(COc3ccc(C(C)(C)c4ccc(O[C@H]5C[C@@H](Nc6ccc7c(c6)C(=O)N(C6CCC(=O)NC6=O)C7=O)C5)cc4)cc3)n2)C1 (stereo partly drawn)    11 to 100 nM
15) Cc1nnc(-c2coc(Oc3ccc(C(C)(C)c4ccc(O[C@H]5C[C@H](Nc6ccc7c(c6)C(=O)N(C6CCC(=O)NC6=O)C7=O)C5)cc4)cc3)n2)o1 (stereo partly drawn)    11 to 100 nM
16) CC(C)(c1ccc(OCc2ccnc(N3CC4(COC4)C3)n2)c(F)c1)c1ccc(O[C@H]2C[C@H](Nc3ccc4c(c3)C(=O)N(C3CCC(=O)NC3=O)C4=O)C2)c(F)c1 (stereo partly drawn)    < 10 nM
17) CC(C)(c1ccc(OCc2cccc(-n3ccnn3)n2)cc1)c1ccc(O[C@H]2C[C@H](Nc3ccc4c(c3)C(=O)N(C3CCC(=O)NC3=O)C4=O)C2)cc1 (stereo partly drawn)    11 to 100 nM
18) Cc1nnc(-c2ccc(Oc3ccc(C(C)(C)c4ccc(O[C@H]5C[C@H](Nc6ccc7c(c6)C(=O)N(C6CCC(=O)NC6=O)C7=O)C5)cc4)cc3)cn2)o1 (stereo partly drawn)    < 10 nM
